- testDetails: Acute toxicity, mouse
- conditionParameters: in vivo, ip, intraperitoneal
valueKind: LD50 (mg/kg)
Reply with just the number (in mg/kg).

Task: Dear colleague, I am looking for the recorded LD50 of the following compound: COc1cccc2c1C(=O)c1c(O)c3c(c(O)c1C2=O)C[C@@](O)(C(C)=O)C[C@@H]3O[C@H]1C[C@H](N)[C@H](O)[C@H](C)O1 [F.I. 1762]
Output: 5

----------
- testDetails: Acute toxicity, rat
- conditionParameters: in vivo, intravenous
valueKind: LD50

Task: Dear colleague, I am looking for the recorded LD50 of the following compound: COc1cccc2c1C(=O)c1c(O)c3c(c(O)c1C2=O)C[C@@](O)(C(C)=O)C[C@@H]3O[C@H]1C[C@H](N)[C@H](O)[C@H](C)O1
Output: 13 to 15 mg/kg

----------
- testDetails: Acute toxicity, rat
- conditionParameters: in vivo, ip, intraperitoneal
valueKind: LD50 (mg/kg)
Reply with just the number (in mg/kg).

Task: Dear colleague, I am looking for the recorded LD50 of the following molecule: COc1cccc2c1C(=O)c1c(O)c3c(c(O)c1C2=O)C[C@@](O)(C(C)=O)C[C@@H]3O[C@H]1C[C@H](N)[C@H](O)[C@H](C)O1
Output: 8

Hello, the source for this data is patent US4012284A, in case you need it.
